# Target Or Test System: insulin receptor (Homo sapiens, UniProt P06213)
# Sequence (P06213 28-758 limits assumed): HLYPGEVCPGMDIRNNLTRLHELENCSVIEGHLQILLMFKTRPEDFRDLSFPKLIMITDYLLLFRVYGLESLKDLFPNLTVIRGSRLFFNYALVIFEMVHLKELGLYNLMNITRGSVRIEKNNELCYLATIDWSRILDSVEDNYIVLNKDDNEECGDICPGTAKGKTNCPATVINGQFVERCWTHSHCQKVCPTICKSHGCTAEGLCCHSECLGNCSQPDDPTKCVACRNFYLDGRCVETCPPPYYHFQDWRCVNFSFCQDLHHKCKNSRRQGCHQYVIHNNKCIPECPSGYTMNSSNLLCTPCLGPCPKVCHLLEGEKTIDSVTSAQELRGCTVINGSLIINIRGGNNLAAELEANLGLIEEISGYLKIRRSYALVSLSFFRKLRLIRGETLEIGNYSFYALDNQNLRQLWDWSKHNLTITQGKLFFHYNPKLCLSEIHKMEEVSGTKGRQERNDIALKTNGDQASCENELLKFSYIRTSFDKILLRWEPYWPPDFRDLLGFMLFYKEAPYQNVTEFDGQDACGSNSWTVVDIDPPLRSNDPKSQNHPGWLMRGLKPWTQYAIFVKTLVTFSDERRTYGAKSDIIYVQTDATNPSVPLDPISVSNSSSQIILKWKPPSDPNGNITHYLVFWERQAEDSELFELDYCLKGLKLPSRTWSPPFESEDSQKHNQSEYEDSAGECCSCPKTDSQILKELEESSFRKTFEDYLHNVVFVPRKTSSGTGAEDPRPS
# Procedure Details: 125I insulin binding to CHO.T11 cells
# Design: expressed in transfected cells
Parameter Measured: pKi
# pKi: negative log10 of molar concentration; output just the value

Ask | pKi for "O=S(=O)(NS(=O)(=O)C(F)(F)F)c1cc(Cl)cc(Cl)c1OS(=O)(=O)c1cc(Cl)cc(Cl)c1O" ?
Reply | 3.88

----------
# Target Or Test System: insulin receptor (Homo sapiens, UniProt P06213)
# Procedure Details: 125I insulin binding to human placental plasma membranes (HPPM)
# Design: Human Placental Plasma Membranes—50 mM Hepes, pH 7.8 @ 4 C containing 100 U/mL Bacitracin; from tissue; host or cells: human placenta, plasma membranes
Parameter Measured: Ki

Ask | Give the reported Ki for "CCCN(CCC)c1c([N+](=O)[O-])cc(S(=O)(=O)NS(=O)(=O)C(F)(F)F)cc1[N+](=O)[O-]" (system: insulin receptor (Homo sapiens, UniProt P06213)).
Reply | ~1000 µM
